Numbers sourced from PubChem BioAssay AID588499.

- Test system: Botulinum neurotoxin type A light chain protease (Clostridium botulinum A str. ATCC 3502)
- methodNotes: BoNT/A light chain protease inhibitors, primary screen, biochemical, flow cytometry, MLPCN library (AID 588499); further: plate controls were buffer without enzyme for full effect and enzyme alone for no effect
- conditionInfo: multiplex microsphere protease substrate cleavage, at 10 µM, hits give high values
The whole screen tested about 360,000 compounds, of which about 610 (0.17%) were called active. Another 2% or so got no clear call; they are omitted. What follows is part of a selection rich in actives, with near analogues and random picks from the rest.
Listing of recorded inhibition by entry.
Reply with just the number (in %).

CSCC[C@H](NC(=O)NCCc1ccc(F)cc1)C(=O)O    0
CCOC(=O)c1ccn(-c2nc(-c3ccco3)cc(C(F)(F)F)n2)n1    0.1
CC(C)(C)c1ccc(S(=O)(=O)NC(=O)C2(C)CCN2C(=O)CC2CC2)cc1 (stereo unspecified)    -0.9
O=c1cnnc(Nc2ccccc2F)[nH]1    -1.3
CC1(C(=O)NS(=O)(=O)C2CC2)CCCN(C(=O)CSc2ccccc2)C1 (stereo unspecified)    0.5

Let us move to another entry and its inhibition.
Ask | State its inhibition: `CCOC(=O)N(C)c1c(CC)nc2c(OCc3ccccc3C(=O)OC)cccn12`
Reply | -0.1

----------
- System: Botulinum neurotoxin type A light chain protease (Clostridium botulinum A str. ATCC 3502)
- methodNotes: BoNT/A light chain protease inhibitors, primary screen, biochemical, flow cytometry, MLPCN library (AID 588499); further: plate controls were buffer without enzyme for full effect and enzyme alone for no effect
- conditionInfo: multiplex microsphere protease substrate cleavage, at 10 µM, hits give high values
Among all 360,000 compounds or so, about 610 (0.17%) were called active. Another 2% or so got no clear call; they are omitted. The entries come from a sample that favours actives as a whole.
experimentalEndpoint: inhibition (%)
Reply with just the number (in %).

Cc1noc(C)c1NC(=O)Nc1cccc2c1O[C@H](CN(C)S(=O)(=O)c1c(C)noc1C)[C@@H](C)CN([C@H](C)CO)C2=O    -0.8
CN=c1scc(-c2cc(OC)ccc2OC)n1/N=C/c1c(C)[nH]c2ccccc12    7.7
Cc1[nH]c2ccccc2c1/C=N/NC(=O)CNC(=O)c1ccc2c(c1)OCO2    0.6
COc1ccc([C@H]2N[C@]3(CCCN(Cc4ccco4)C3=O)[C@H]3C(=O)N(C)C(=O)[C@@H]23)cc1    -0.4
CCc1nc2c(OCCOc3ccccc3)cccn2c1N(C)C(=O)c1ccccc1F    -0.2
COCCNC(=S)N/N=C/c1c(C)[nH]c2ccccc12    42.9
CCC(C)C(N=C1NS(=O)(=O)c2ccccc21)C(=O)N1CCC(C)CC1 (centres undefined)    -2.7
Nc1nonc1-n1nnc(C(=O)N/N=C/c2cc(Br)ccc2O)c1CSC1=NCCS1    0.6

Ask | State the measured inhibition (Botulinum neurotoxin type A light chain protease (Clostridium botulinum A str. ATCC 3502)) of O=C(NCc1ccccc1)C1c2ccccc2OCC(=O)N1C1CC1 (centres undefined)
Reply | 0

----------
- Test system: Botulinum neurotoxin type A light chain protease (Clostridium botulinum A str. ATCC 3502)
- methodNotes: BoNT/A light chain protease inhibitors, primary screen, biochemical, flow cytometry, MLPCN library (AID 588499); further: plate controls were buffer without enzyme for full effect and enzyme alone for no effect
- conditionInfo: multiplex microsphere protease substrate cleavage, at 10 µM
Screen size: about 360,000 compounds; about 610 (0.17%) were called active. Not shown: some 2% with an inconclusive outcome. No stated cut-off is given here; in the data, active means inhibition above about 30%; inconclusive means no clear call, values can overlap the other calls; inactive means below that. Only a selection was taken, and actives are over-represented in it overall.
Choose one outcome from this list and give only that: 1 (yes) (active), 0 (no) (inactive)

COC(=O)c1cn(C)c2ccc(S(=O)(=O)N3CC(C)CC(C)C3)cc2c1=O (configuration not stated)    0 (no)
Nc1ncnc2c1cnn2C1CC(O)C(CO)O1 (configuration not stated)    0 (no)
COC(=O)c1ccc(CNC(=O)c2ccc(S(=O)(=O)N3CCCCCC3)cc2)cc1    0 (no)
CC(C)C1N=C2c3ccccc3N=C(SCC(=O)c3ccc(O)c(O)c3)N2C1=O (configuration not stated)    0 (no)
O=S1(=O)CC(N2CCSCC2)CN1Cc1cn(Cc2cccc(Cl)c2)nn1 (configuration not stated)    0 (no)

Ask | Hey, what did the test say about `Cc1cc2cc(CNC(=O)c3ccc(S(=O)(=O)N4CCOCC4)cc3)ccc2[nH]1` ?
Reply | 1 (yes)

Ask | Hey, what did the test say about CCCc1ccc(C(O)c2ncc(-c3cccc(OC)c3)[nH]2)cc1 (configuration not stated) ?
Reply | 0 (no)

Ask | Hey, what did the test say about `CCc1cccc(CC)c1NC(=S)NCc1ccc2[nH]c(C)cc2c1` ?
Reply | 1 (yes)
